Source listed as patent US6407248B1.

measurementType: melting point

# input compound: `CC(C)NC(=C[N+](=O)[O-])NCc1cccnc1` ; wanted: its melting point
148 to 150 °C

# input compound: `CSC(=C[N+](=O)[O-])NCc1cccnc1` ; wanted: its melting point
129 to 130 °C

# input compound: `O=[N+]([O-])C=C(NCc1cccnc1)NCc1cccnc1` ; wanted: its melting point
141 to 143 °C

# input compound: `CCCSCCNC(=C[N+](=O)[O-])NCc1cccnc1` ; wanted: its melting point
93 to 94 °C

# input compound: `NC(=C[N+](=O)[O-])NCc1cccnc1` ; wanted: its melting point
177 to 178 °C (dec.)

====

measurementType: melting point

# input compound: `O=[N+]([O-])C=C(NCc1cccnc1)Nc1ccccc1` ; wanted: its melting point
217 to 218 °C

# input compound: `O=[N+]([O-])C=C(NCc1cccnc1)NCC(F)(F)F` ; wanted: its melting point
164 to 165 °C

# input compound: `CCCCNC(=C[N+](=O)[O-])NCc1cccnc1` ; wanted: its melting point
110 to 112 °C

# input compound: `COC(CNC(=C[N+](=O)[O-])NCc1cccnc1)OC` ; wanted: its melting point
96 to 98 °C

# input compound: `O=[N+]([O-])C=C(NCCO)NCc1cccnc1` ; wanted: its melting point
161 to 163 °C

# input compound: `O=[N+]([O-])C=C(NCc1cccnc1)N1CCOCC1` ; wanted: its melting point
102 to 103 °C

Here's the next entry for you.
# input compound: `CCCCCNC(=C[N+](=O)[O-])NCc1cccnc1` ; wanted: its melting point
97 to 98 °C
